- System: Digitaria ciliaris
- Assay Explanation: Farming soil treatment test
- Assay type: in vivo
- Conditions: 10 g a.i./10 a; soil surface spray prior to weed growth; 30 days at 30° C.
Assay Metric: herbicidal efficacy, Digitaria ciliaris

Some entries whose results are on file:
| Molecule | Measured Value |
| --- | --- |
| N#Cc1cnn(-c2nn3c(c2Cl)CCCC3)c1NC(=O)c1ccccc1 [Control agent 4.192, reference compound] | 2 (2: 20% to less than 30%) |
| N#Cc1cnn(-c2nn3c(c2Cl)CCCC3)c1NC(=O)Cc1ccc(F)cc1 [Compound 15] | 10 (10: 100%) |
| O=C(Cc1ccccc1)Nc1c([N+](=O)[O-])cnn1-c1nn2c(c1Cl)CCCC2 [Compound 5] | 9 (9: 90% to less than 100%) |
| N#Cc1cnn(-c2nn3c(c2Cl)CCCC3)c1NC(=O)Cc1cccc(F)c1 [Compound 11] | 10 (10: 100%) |
| N#Cc1cnn(-c2nn3c(c2Cl)CCCC3)c1NC(=O)CCc1ccccc1 [Compound 19] | 10 (10: 100%) |

Enquiry: Quick one: herbicidal efficacy, Digitaria ciliaris for N#Cc1cnn(-c2nn3c(c2Cl)CCCC3)c1NC(=O)Cc1ccccc1 [Compound 3] ?
Return: 9 (9: 90% to less than 100%)

Enquiry: Try the molecule O=C(Nc1c([N+](=O)[O-])cnn1-c1nn2c(c1Cl)CCCC2)c1ccccc1 [Control agent 2.19, reference compound]
Return: 2 (2: 20% to less than 30%)

Enquiry: Try the molecule Cc1cccc(CC(=O)Nc2c(C#N)cnn2-c2nn3c(c2Cl)CCCC3)c1 [Compound 9]
Return: 9 (9: 90% to less than 100%)

Enquiry: Try the molecule Cc1ccccc1CC(=O)Nc1c(C#N)cnn1-c1nn2c(c1Cl)CCCC2 [Compound 6]
Return: 9 (9: 90% to less than 100%)
